compounds and their reported IC50
biological target: Recombinant EGFR (Homo sapiens, UniProt P00533); assay: EGFR binding affinity (LanthaScreen TR-FRET); settings: Kinase Tracer 199, 5 h incubation
Sequence (P00533 25-1210): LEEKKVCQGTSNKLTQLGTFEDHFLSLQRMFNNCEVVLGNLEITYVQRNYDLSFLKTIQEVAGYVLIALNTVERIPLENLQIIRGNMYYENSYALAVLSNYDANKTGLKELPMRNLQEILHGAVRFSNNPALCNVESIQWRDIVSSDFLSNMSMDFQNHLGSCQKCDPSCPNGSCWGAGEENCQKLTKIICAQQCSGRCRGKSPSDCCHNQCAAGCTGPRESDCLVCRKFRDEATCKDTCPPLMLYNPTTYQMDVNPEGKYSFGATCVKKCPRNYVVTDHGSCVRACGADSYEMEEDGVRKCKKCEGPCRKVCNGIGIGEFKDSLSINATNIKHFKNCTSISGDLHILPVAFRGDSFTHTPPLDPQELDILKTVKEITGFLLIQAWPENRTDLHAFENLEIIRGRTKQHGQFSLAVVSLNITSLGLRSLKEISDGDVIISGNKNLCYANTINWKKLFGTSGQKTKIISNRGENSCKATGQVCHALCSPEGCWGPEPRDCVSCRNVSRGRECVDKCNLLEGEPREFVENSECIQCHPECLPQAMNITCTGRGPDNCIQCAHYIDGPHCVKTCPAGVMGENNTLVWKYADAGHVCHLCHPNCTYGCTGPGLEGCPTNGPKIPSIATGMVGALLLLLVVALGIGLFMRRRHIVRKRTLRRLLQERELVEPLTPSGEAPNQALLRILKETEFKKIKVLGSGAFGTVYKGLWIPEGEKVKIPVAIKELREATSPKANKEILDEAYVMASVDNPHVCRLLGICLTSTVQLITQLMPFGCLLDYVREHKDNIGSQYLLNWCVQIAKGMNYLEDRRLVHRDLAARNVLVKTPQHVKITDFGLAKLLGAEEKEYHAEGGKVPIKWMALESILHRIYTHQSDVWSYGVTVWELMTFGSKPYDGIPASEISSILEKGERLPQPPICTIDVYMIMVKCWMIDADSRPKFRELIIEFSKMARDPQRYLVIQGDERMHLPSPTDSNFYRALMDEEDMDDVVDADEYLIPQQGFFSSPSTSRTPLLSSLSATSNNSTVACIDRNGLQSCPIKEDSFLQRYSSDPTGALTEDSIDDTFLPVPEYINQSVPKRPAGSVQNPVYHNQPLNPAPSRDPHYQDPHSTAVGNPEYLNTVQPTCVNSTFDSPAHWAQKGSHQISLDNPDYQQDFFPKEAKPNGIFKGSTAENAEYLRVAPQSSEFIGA

Prompt line: Form: Entry = COc1ccc(F)cc1C(=O)NCc1ccc(-c2nn(C3CCCOC3)c(N)c2C(N)=O)cc1F (centres unmarked) | System = Recombinant EGFR (Homo sapiens, UniProt P00533) | IC50 = ____
Response line: 1 to 10 µM

Prompt line: Note, next up: `COc1ccccc1C(=O)NCc1cc(F)c(-c2nn(C3CCOCC3)c(N)c2C(N)=O)cc1F`
Response line: > 10 µM

Prompt line: Note, next up: `COc1ccccc1C(=O)NCc1ccc(-c2nn(C3CCOCC3)c(C(F)F)c2C(N)=O)cc1`
Response line: > 10 µM

Prompt line: Note, next up: `COc1ccccc1C(=O)NCc1ccc(-c2nn(CCO)c(N)c2C(N)=O)cc1`
Response line: > 10 µM

---

compounds and their reported IC50
biological target: Recombinant EGFR (Homo sapiens); construct: purchased Invitrogen; assay: EGFR binding affinity (LanthaScreen TR-FRET); details: Kinase Tracer 199, 5 h incubation

Solved cases below.
COc1ccccc1C(=O)NCc1ccc(-c2nn(-c3cccc(C(F)(F)F)c3)c(N)c2C(N)=O)cc1 [Example 16]; 1000 to 10000 nM
COc1ccccc1C(=O)NCc1ccc(-c2nn(CC(O)C(C)(C)C)c(N)c2C(N)=O)cc1 (stereo not drawn) [Example 14]; 1000 to 10000 nM
COc1ccc(F)cc1C(=O)NCc1cc(F)c(-c2nn(C3CCOC3)c(N)c2C(N)=O)cc1F (stereo not drawn) [Example 153]; > 10000 nM
COc1ccccc1C(=O)NCc1ccc(-c2nn(-c3ccccc3F)c(N)c2C(N)=O)cc1 [Example 39]; 100 to 1000 nM
COc1ccc(F)cc1C(=O)NCc1ccc(-c2nn(C3CCOCC3)c(N)c2C(N)=O)c(F)c1F [Example 142]; 1000 to 10000 nM

Prompt line: Record request: IC50 value, item COc1ccc(F)cc1C(=O)NCc1ccc(-c2nn(C3CN(C(C)C)CC3(F)F)c(N)c2C(N)=O)cc1 (stereo not drawn) [Example 197]
Response line: 1000 to 10000 nM

Prompt line: Note, next up: COc1ccccc1C(=O)NCc1ccc(-c2nn(C3CC(=O)c4ccccc43)c(N)c2C(N)=O)cc1 (stereo not drawn) [Example 59]
Response line: 1000 to 10000 nM

---

Biological target: Recombinant BTK^WT kinase (Homo sapiens, UniProt Q06187)
Sequence (Q06187 whole entry): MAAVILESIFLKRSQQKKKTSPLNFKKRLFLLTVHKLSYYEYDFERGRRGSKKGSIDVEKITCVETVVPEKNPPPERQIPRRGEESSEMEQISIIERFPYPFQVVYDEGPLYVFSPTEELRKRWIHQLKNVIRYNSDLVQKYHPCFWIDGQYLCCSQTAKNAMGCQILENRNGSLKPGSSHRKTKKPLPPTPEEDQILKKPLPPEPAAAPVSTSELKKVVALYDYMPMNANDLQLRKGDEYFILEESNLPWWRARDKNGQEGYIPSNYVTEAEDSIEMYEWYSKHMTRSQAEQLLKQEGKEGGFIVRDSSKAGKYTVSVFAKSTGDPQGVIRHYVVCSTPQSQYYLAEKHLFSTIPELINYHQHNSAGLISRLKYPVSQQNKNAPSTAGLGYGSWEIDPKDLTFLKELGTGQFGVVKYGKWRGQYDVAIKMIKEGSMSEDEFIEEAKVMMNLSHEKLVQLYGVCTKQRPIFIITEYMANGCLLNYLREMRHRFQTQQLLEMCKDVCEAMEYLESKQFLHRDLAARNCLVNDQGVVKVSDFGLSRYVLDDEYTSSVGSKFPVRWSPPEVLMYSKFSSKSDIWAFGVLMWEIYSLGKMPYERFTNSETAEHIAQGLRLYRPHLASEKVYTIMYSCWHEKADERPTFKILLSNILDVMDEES
Experiment: BTK WT binding affinity (LanthaScreen TR-FRET)
Conditions: Kinase Tracer 236, 5 h incubation
Experimental: BTK^WT binding affinity of each compound tested was determined using a time-resolved fluorescence resonance energy transfer (TR-FRET) methodology. 2.5 nM Recombinant BTK^WT kinase, varying concentrations of inhibitor, 2 nM LanthaScreen™ Eu anti-His Antibody and 15 nM Kinase Tracer 236 was incubated in 1× LanthaScreen™ Kinase Buffer A for 5 h. […] The TR-FRET signal was read on a plate reader with an excitation wavelength of 340 nm and detection wavelengths of 615 and 665 nm. […]
compounds and their reported IC50

Solved cases below.
COc1ccccc1C(=O)NCc1ccc(-c2nn(-c3cccc(F)c3F)c(N)c2C(N)=O)cc1 [Example 81]; < 10 nM
COc1ccccc1C(=O)NCc1ccc(-c2nn(C3CCCC3)c(N)c2C(N)=O)c(F)c1F [Example 155]; < 10 nM
COc1ccc(F)cc1C(=O)NCc1ccc(-c2nn(C3COCC3(F)F)c(N)c2C(N)=O)cc1 (stereo not drawn) [Example 200]; < 10 nM
COc1ccccc1C(=O)NCc1ccc(-c2nn(CCc3nnn[nH]3)c(N)c2C(N)=O)cc1 [Example 25]; 10 to 100 nM
COc1ccccc1C(=O)NCc1ccc(-c2nn(CC(O)C(C)(C)C)c(N)c2C(N)=O)cc1 (stereo not drawn) [Example 14]; 10 to 100 nM

Prompt line: Form: Entry = COc1ccccc1C(=O)NCc1ccc(-c2nn([C@H]3CC[C@H](Cl)C3)c(N)c2C(N)=O)cc1 (relative stereo) [Example 37] | System = Recombinant BTK^WT kinase (Homo sapiens, UniProt Q06187) | IC50 = ____
Response line: < 10 nM
